Below, each entry is listed alongside its reported pest or weed control at 5 g/ha.
# Test system: Echinochloa crus-galli
# experimental details: Herbicidal activity to barnyardgrass in paddy condition, pre- and post-emergence, greenhouse pot test
# Format: in vivo
# protocol conditions: Echinochloa crus-galli, 336 h; 5 g/ha; pre-emergence (5 days after sowing); visual rating after two weeks; read-out: Herbicidal activity, Echinochloa crus-galli, Pre-emergence
Supply the numeric figure in %, leaving out any unit text.

Check out these entries, answers already filled in.
{"compound": "COCC(=O)O[C@H](c1nccc(Cl)c1S(=O)(=O)NC(=O)Nc1nc(OC)cc(OC)n1)[C@H](C)F [Com. 5]", "system": "Echinochloa crus-galli", "pest or weed control at 5 g/ha (%)": 50}
{"compound": "CCOC(=O)c1cnn(C)c1S(=O)(=O)NC(=O)Nc1nc(OC)cc(OC)n1 [Standard Compound E, Pyrazosulfuron-ethyl, reference compound]", "system": "Echinochloa crus-galli", "pest or weed control at 5 g/ha (%)": 0}
{"compound": "COCC(=O)O[C@H](c1nccc(C)c1S(=O)(=O)NC(=O)Nc1nc(OC)cc(OC)n1)[C@H](C)F [Com. 7]", "system": "Echinochloa crus-galli", "pest or weed control at 5 g/ha (%)": 60}

Q: Would you kindly share the measured pest or weed control at 5 g/ha for COCCC(=O)O[C@H](c1ncccc1S(=O)(=O)NC(=O)Nc1nc(OC)cc(OC)n1)[C@H](C)F [Com. 4] ?
Result: 60

Q: Query (compound): COc1cc(OC)nc(NC(=O)NS(=O)(=O)c2cccnc2[C@@H](OC(=O)CCO)[C@H](C)F)n1 [Com. 3] ; field requested: pest or weed control at 5 g/ha
Result: 60

Q: Field request: pest or weed control at 5 g/ha | item: COc1cc(OC)nc(NC(=O)NS(=O)(=O)c2ccccc2[C@@H](O)[C@H](C)F)n1 [Standard Compound A, reference compound]
Result: 60

Q: Record request: pest or weed control at 5 g/ha value, item COc1cc(OC)nc(NC(=O)NS(=O)(=O)c2cccnc2[C@@H](O)[C@H](C)F)n1 [Standard Compound C, reference compound]
Result: 40

Q: Need pest or weed control at 5 g/ha, item COc1cc(OC)nc(NC(=O)NS(=O)(=O)c2cccnc2[C@@H](OC(=O)CO)[C@H](C)F)n1 [Com. 1]
Result: 50

Q: Query (compound): COc1cc(OC)nc(NC(=O)NS(=O)(=O)c2ccccc2[C@@H](OC(C)=O)[C@H](C)F)n1 [Standard Compound B, reference compound] ; field requested: pest or weed control at 5 g/ha
Result: 50
